assaySummary: chemical genetic growth profiling, strain panel (AID 1159580);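 also: tested at 20 µM; growth read once vehicle control cultures reached saturation at 30 °C; 1 = growth at the plate median or of vehicle wells; lower values mean less growth of the strain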
conditionDescription: S. cerevisiae deletion strains, growth OD, locus YGL173C, strain kem1
Among all 5,500 compounds or so, about 2,000 (36%) were called active. Not shown: some 18% with an inconclusive outcome. Rule as the data show it: active = normalized growth mostly below about 0.91 (no sharp cut-off); inconclusive = no clear call, values can overlap the other calls; inactive = mostly above about 0.92. Some of the results follow.
Output constraint: value belongs to active, inactive

Reference set, count: 5
{"molecule": "O=c1n(CCCN2CCN(c3cccc(Cl)c3)CC2)nc2ccccn12", "labelValue": "inactive"}
{"molecule": "CN1CCN(CCCN2c3ccccc3Sc3ccc(Cl)cc32)CC1", "labelValue": "active"}
{"molecule": "N#Cc1ccc2c(c1)N(CCCN1CCC(O)CC1)c1ccccc1S2", "labelValue": "inactive"}
{"molecule": "O=C(O)c1cccc(O)c1O", "labelValue": "inactive"}
{"molecule": "CC1=C2CCC3C(CC[C@]4(C)C(=O)CCC34)[C@@]2(C)CCC1=O (stereo partly specified)", "labelValue": "inactive"}

Check the results log: what was the call for CCNc1nc(Cl)nc(NC(C)C)n1 ?
inactive

Check the results log: what was the call for CC1(C)C[C@@H]2C(=O)CC[C@H]3O[C@]3(C)CC[C@H]21 ?
inactive

Check the results log: what was the call for OCCN1CCN(CCCN2c3ccccc3Sc3ccc(Cl)cc32)CC1 ?
inactive

Check the results log: what was the call for CC(=O)c1ccc2c(c1)N(CCCN(C)C)c1ccccc1S2 ?
inactive

Check the results log: what was the call for CCOC(=O)C1=C(C)NC(C)=C(C(=O)OC)C1c1cccc([N+](=O)[O-])c1 (stereo unspecified) ?
inactive

Check the results log: what was the call for Cn1cnc([N+](=O)[O-])c1Sc1ncnc2nc[nH]c12 ?
inactive

====

Give normalized growth for every item shown.
assaySummary: chemical genetic growth profiling, strain panel (AID 1159580);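 also: tested at 20 µM; growth read once vehicle control cultures reached saturation at 30 °C; 1 = growth at the plate median or of vehicle wells; lower values mean less growth of the strain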
conditionDescription: S. cerevisiae strains, growth OD, strain wild type, active compounds read low
Hit rate of the full screen: of about 5,500 compounds, about 2,000 (36%) were called active. About 18% were inconclusive and are not listed. The list shows a part of the results.
Answers are plain numbers.

Solved entries:
{"molecule": "COc1ccc2[nH]cc(CCNC(C)=O)c2c1", "measured": 1.01}
{"molecule": "S=C(NCc1ccco1)Nc1ccc(Oc2ccc(Cl)cc2)cc1", "measured": 0.883}
{"molecule": "CC1=C2[C@](C)(C=CC1=O)C[C@H](O)[C@H]1[C@H](C)C(=O)O[C@]21C", "measured": 1.02}
{"molecule": "CC1=C2CCC3C(CC[C@]4(C)C(=O)CCC34)[C@@]2(C)CCC1=O (stereo partly drawn)", "measured": 0.942}
{"molecule": "CCCCC/C=C\\C/C=C\\C/C=C\\C/C=C\\CCCC(=O)O", "measured": 0.976}
{"molecule": "COc1cc(OC)cc(OC)c1", "measured": 1.01}

Items follow; give normalized growth for each.
1. COc1ccc2ccc(=O)oc2c1CC=C(C)C
2. COc1cc(OC)c2c(c1Cl)OC1(C2=O)C(O)=CC(=O)CC1C (stereo not drawn)
3. Cc1ccc(C(=O)NNC(=O)c2ccncc2)c(C)c1
4. CC1(C)C=Cc2c(cc3occ(-c4ccc5c(c4)OCO5)c(=O)c3c2O)O1
5. COc1ccc(/C=C(\C#N)c2nc3ccccc3[nH]2)cc1OC
6. CCc1cccc(C)c1NC(=O)N1CCN(C(=O)OC(C)(C)C)CC1
7. CC(C)=CCc1c(O)cc2occ(-c3ccc4c(c3)OCO4)c(=O)c2c1O

1. 0.798
2. 1.04
3. 1.01
4. 0.889
5. 0.94
6. 1
7. 1

Items follow; give normalized growth for each.
1. CC1=C(C(=O)O)N2C(=O)[C@@H](NC(=O)[C@H](N)C3=CCC=CC3)C2SC1 (stereo partly drawn)
2. COc1cc(NC(=O)Nc2ccc(OC(F)(F)F)cc2)cc(C(F)(F)F)c1
3. CCN(CC)CCNC(=O)COc1ccc(OC)cc1
4. COc1cccc(NC(=S)NCc2ccco2)c1
5. N#CCCNc1cc(C(F)(F)F)cc(C(F)(F)F)c1
6. Cn1nnnc1SCC1=C(C(=O)O)N2C(=O)C(NC(=O)C(OC=O)c3ccccc3)C2SC1 (stereo not drawn)
7. Cc1ncc([N+](=O)[O-])n1CCO

1. 0.985
2. 1.01
3. 1
4. 0.996
5. 0.991
6. 1
7. 0.98

Items follow; give normalized growth for each.
1. CCCc1ccc(OC)cc1NC(C)=O
2. C[C@H]1C(=O)O[C@@H]2CCN3CC=C(COC(=O)[C@](C)(O)[C@]1(C)O)[C@H]23
3. C[C@]12C=CC(=O)C=C1CCC1C2C(=O)C[C@@]2(C)C1CC[C@]2(O)C(=O)CO (stereo partly drawn)

1: 0.999; 2: 0.995; 3: 0.986

Cited source for all entries: PubChem BioAssay AID1159580
